Where do these numbers come from? They come from patent US6833456B2.

target: unphosphorylated VEGF-R2Δ50 (FLVK) (Homo sapiens, UniProt P35968, DEL940-989/E990V); construct: VEGF-R2Δ50 contains residues 806-939 and 990-1171; assay: VEGF-R2 coupled spectrophotometric assay, unphosphorylated construct (FLVK)
Sequence (P35968 with tags, fused parts or gaps DEL940-989/E990V limits assumed): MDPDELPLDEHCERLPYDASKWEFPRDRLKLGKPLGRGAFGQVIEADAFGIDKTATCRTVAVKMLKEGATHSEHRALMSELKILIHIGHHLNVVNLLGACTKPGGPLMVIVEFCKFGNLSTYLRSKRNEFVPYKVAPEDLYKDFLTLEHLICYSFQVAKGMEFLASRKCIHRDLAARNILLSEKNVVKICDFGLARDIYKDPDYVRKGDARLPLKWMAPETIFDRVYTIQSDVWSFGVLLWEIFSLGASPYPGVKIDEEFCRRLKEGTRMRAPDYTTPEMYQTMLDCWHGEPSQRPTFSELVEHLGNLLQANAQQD
Listed next: entries and their corresponding log10 of Ki.
value_type: log10 of Ki (log10 of the value in nM)

[
  {
    "compound": "CCC(=O)n1c(C)cc2cc(Oc3ccnc4cc(C(=O)N5CC[C@H](OC)C5)sc34)ccc21 [Example 10a]",
    "value_type": "log10 of Ki",
    "observed_value": 0.67
  },
  {
    "compound": "CNC(=O)n1c(C)cc2cc(Nc3cccc4cc(C(=O)N5C[C@H](OC)C[C@H]5CO)sc34)ccc21 [Example 3f]",
    "value_type": "log10 of Ki",
    "observed_value": 1.02
  },
  {
    "compound": "CNC(=O)n1c(C)cc2cc(Nc3ncnc4cc(C(=O)N5CCC[C@H]5COC)sc34)ccc21 [Example 11b]",
    "value_type": "log10 of Ki",
    "observed_value": 1.46
  },
  {
    "compound": "Cc1cc2cc(Nc3ccnc4cc(C(=O)N5CCC[C@@H]5CO)sc34)ccc2n1C(=O)NC1CC1 [Example 1c]",
    "value_type": "log10 of Ki",
    "observed_value": -0.17
  },
  {
    "compound": "Cc1cc2cc(Nc3ccnc4cc(-c5nc(C(C)(C)O)cs5)sc34)ccc2n1C(=O)NC1CC1 [Example 3b]",
    "value_type": "log10 of Ki",
    "observed_value": -0.68
  },
  {
    "compound": "C#CCNC(=O)n1c(C)cc2cc(Oc3ccnc4cc(C(=O)N5CC[C@H](O)C5)sc34)ccc21 [Example 9j]",
    "value_type": "log10 of Ki",
    "observed_value": -0.79
  },
  {
    "compound": "COC[C@H]1CCCN1C(=O)c1cc2nccc(Oc3ccc4[nH]c(C)c(C(=O)NC5CC5)c4c3)c2s1 [Example 4y]",
    "value_type": "log10 of Ki",
    "observed_value": 1.38
  }
]

====

Reported inhibition at 0.05 µM values follow for various compounds
Target: unphosphorylated VEGF-R2Δ50 (FLVK) (Homo sapiens, UniProt P35968, DEL940-989/E990V)
Construct: VEGF-R2Δ50 contains residues 806-939 and 990-1171; made in house; host or cells: baculovirus/insect cell system
Experiment: VEGF-R2 coupled spectrophotometric assay, unphosphorylated construct (FLVK)
Type: biochemical
Conditions: percent inhibition at 50 nM
Method: This construct determines the ability of a test compound to inhibit tyrosine kinase activity. […] The production of ADP from ATP that accompanies phosphoryl transfer was coupled to oxidation of NADH using phosphoenolpyruvate (PEP) and a system having pyruvate kinase (PK) and lactic dehydrogenase (LDH). The oxidation of NADH was monitored by following the decrease of absorbance at 340 nm ([…]=6.22 cm^−1 mM^−1) using a Beckman DU 650 spectrophotometer. […]
value_type: inhibition at 0.05 µM (%)

[
  {
    "compound": "CO[C@@H]1CCN(C(=O)c2cc3nccc(Oc4ccc5c(c4)cc(C)n5C(=O)NC4CC4)c3s2)C1",
    "value_type": "inhibition at 0.05 µM",
    "u": "%",
    "observed_value": 96
  },
  {
    "compound": "Cc1cc2cc(Oc3ccnc4cc(C(=O)N5CCC5)sc34)ccc2n1C(=O)NCCCO",
    "value_type": "inhibition at 0.05 µM",
    "u": "%",
    "observed_value": 97
  },
  {
    "compound": "C#CCNC(=O)n1c(C)cc2c(F)c(Oc3ccnc4cc(C(=O)N5CCC[C@H]5COC)sc34)ccc21",
    "value_type": "inhibition at 0.05 µM",
    "u": "%",
    "observed_value": 99
  },
  {
    "compound": "CCC(=O)n1c(C)cc2cc(Oc3ccnc4cc(C(=O)N5CC[C@H](O)C5)sc34)ccc21 [Example 10b]",
    "value_type": "inhibition at 0.05 µM",
    "u": "%",
    "observed_value": 90
  },
  {
    "compound": "C#CCNC(=O)n1c(C)c(Cl)c2c(F)c(Oc3ccnc4cc(C(=O)N5CC[C@H](OC)C5)sc34)ccc21",
    "value_type": "inhibition at 0.05 µM",
    "u": "%",
    "observed_value": 98
  },
  {
    "compound": "CNC(=O)n1c(C)cc2cc(Oc3ccnc4cc(C(=O)N5C[C@H](OC)[C@H](OC)C5)sc34)ccc21",
    "value_type": "inhibition at 0.05 µM",
    "u": "%",
    "observed_value": 96
  },
  {
    "compound": "CO[C@H]1CCN(C(=O)c2cc3nccc(Oc4ccc5c(c4F)c(Cl)c(C)n5C(=O)NC4CC4)c3s2)C1",
    "value_type": "inhibition at 0.05 µM",
    "u": "%",
    "observed_value": 97
  },
  {
    "compound": "C#CCNC(=O)n1c(C)cc2c(F)c(Oc3ccnc4cc(C(=O)N5CCC[C@H]5CO)sc34)ccc21",
    "value_type": "inhibition at 0.05 µM",
    "u": "%",
    "observed_value": 100
  },
  {
    "compound": "CNC(=O)n1c(C)cc2cc(Nc3ncnc4cc(C(=O)N5CCC[C@H]5COC)sc34)ccc21 [Example 11b]",
    "value_type": "inhibition at 0.05 µM",
    "u": "%",
    "observed_value": 18
  },
  {
    "compound": "CNC(=O)n1c(C)cc2cc(Oc3ccnc4cc(-c5nc(CO)cs5)sc34)ccc21",
    "value_type": "inhibition at 0.05 µM",
    "u": "%",
    "observed_value": 83
  },
  {
    "compound": "Cc1cc2cc(Oc3ccnc4cc(C(=O)N5CC[C@@H](O)C5)sc34)ccc2n1C(=O)NC1CC1",
    "value_type": "inhibition at 0.05 µM",
    "u": "%",
    "observed_value": 98
  },
  {
    "compound": "C#CCNC(=O)n1c(C)cc2cc(Oc3ccnc4cc(C(=O)N5CC[C@@H](OC)C5)sc34)ccc21",
    "value_type": "inhibition at 0.05 µM",
    "u": "%",
    "observed_value": 96
  },
  {
    "compound": "CNC(=O)n1c(C)cc2cc(Oc3ccnc4cc(C(=O)N5C[C@H](OC)[C@@H](OC)C5)sc34)ccc21",
    "value_type": "inhibition at 0.05 µM",
    "u": "%",
    "observed_value": 97
  },
  {
    "compound": "CNC(=O)n1c(C)cc2cc(Oc3ccnc4cc(C(=O)N(C)CCO)sc34)ccc21",
    "value_type": "inhibition at 0.05 µM",
    "u": "%",
    "observed_value": 88
  },
  {
    "compound": "CNC(=O)n1c(C)cc2c(F)c(Oc3ccnc4cc(C(=O)N5CC[C@@H](O)C5)sc34)ccc21",
    "value_type": "inhibition at 0.05 µM",
    "u": "%",
    "observed_value": 98
  },
  {
    "compound": "C#CCNC(=O)n1c(C)cc2cc(Oc3ccnc4cc(C(=O)N5CCC[C@@H]5CO)sc34)ccc21",
    "value_type": "inhibition at 0.05 µM",
    "u": "%",
    "observed_value": 97
  },
  {
    "compound": "C#CCNC(=O)n1c(C)cc2cc(Nc3ccnc4cc(C(=O)N5CCC[C@@H]5CO)sc34)ccc21",
    "value_type": "inhibition at 0.05 µM",
    "u": "%",
    "observed_value": 97
  },
  {
    "compound": "C#CCNC(=O)n1c(C)cc2cc(Nc3ccnc4cc(C(=O)N5CC[C@@H](OC)C5)sc34)ccc21",
    "value_type": "inhibition at 0.05 µM",
    "u": "%",
    "observed_value": 93
  },
  {
    "compound": "CNC(=O)n1c(C)cc2cc(Nc3ccnc4cc(C(=O)N5CC(F)[C@H](OC)C5)sc34)ccc21 (stereo partly drawn)",
    "value_type": "inhibition at 0.05 µM",
    "u": "%",
    "observed_value": 93
  },
  {
    "compound": "CCCNC(=O)n1c(C)cc2cc(Oc3ccnc4cc(C(=O)N5C[C@H](O)[C@@H](O)C5)sc34)ccc21",
    "value_type": "inhibition at 0.05 µM",
    "u": "%",
    "observed_value": 99
  },
  {
    "compound": "CNC(=O)n1c(C)cc2cc(Oc3ccnc4cc(C(=O)N5C[C@H](OC)[C@@H](O)C5)sc34)ccc21",
    "value_type": "inhibition at 0.05 µM",
    "u": "%",
    "observed_value": 98
  },
  {
    "compound": "C#CCNC(=O)n1c(C)cc2cc(Oc3ccnc4cc(C(=O)N5CC[C@@H](O)C5)sc34)ccc21",
    "value_type": "inhibition at 0.05 µM",
    "u": "%",
    "observed_value": 97
  },
  {
    "compound": "CCCNC(=O)n1c(C)cc2cc(Oc3ccnc4cc(C(=O)N5CC[C@H](O)C5)sc34)ccc21",
    "value_type": "inhibition at 0.05 µM",
    "u": "%",
    "observed_value": 98
  },
  {
    "compound": "CNC(=O)n1c(C)cc2c(F)c(Oc3ccnc4cc(C(=O)N5CCC[C@H]5COC)sc34)ccc21",
    "value_type": "inhibition at 0.05 µM",
    "u": "%",
    "observed_value": 99
  },
  {
    "compound": "CNC(=O)n1c(C)cc2cc(Nc3ccnc4cc(C(=O)N5CC[C@@H](OC)C5)sc34)ccc21",
    "value_type": "inhibition at 0.05 µM",
    "u": "%",
    "observed_value": 94
  },
  {
    "compound": "CCCNC(=O)n1c(C)cc2cc(Oc3ccnc4cc(C(=O)N5CC[C@@H](N(C)C)C5)sc34)ccc21",
    "value_type": "inhibition at 0.05 µM",
    "u": "%",
    "observed_value": 99
  },
  {
    "compound": "Cc1cc2cc(Nc3ccnc4cc(C(=O)N5CC[C@@H](O)C5)sc34)ccc2n1C(=O)NC1CC1",
    "value_type": "inhibition at 0.05 µM",
    "u": "%",
    "observed_value": 99
  },
  {
    "compound": "CNC(=O)n1c(C)cc2cc(Nc3ncnc4sc(C(=O)N5CCC[C@H]5COC)cc34)ccc21 [Example 12b]",
    "value_type": "inhibition at 0.05 µM",
    "u": "%",
    "observed_value": 5
  },
  {
    "compound": "CNC(=O)n1c(C)cc2cc(Nc3ccnc4cc(-c5nc(C(C)(C)O)cs5)sc34)ccc21",
    "value_type": "inhibition at 0.05 µM",
    "u": "%",
    "observed_value": 91
  },
  {
    "compound": "Cc1cc2cc(Oc3ccnc4cc(C(=O)N5CC[C@H](O)C5)sc34)ccc2n1C(=O)NCCO",
    "value_type": "inhibition at 0.05 µM",
    "u": "%",
    "observed_value": 90
  }
]
